Biological target: HGF (hepatocyte growth factor/scatter factor) (UniProt P14210;P14210 P14210:32-494,P14210:495-728)
Sequence (P14210 32-494, chain 1 of 2): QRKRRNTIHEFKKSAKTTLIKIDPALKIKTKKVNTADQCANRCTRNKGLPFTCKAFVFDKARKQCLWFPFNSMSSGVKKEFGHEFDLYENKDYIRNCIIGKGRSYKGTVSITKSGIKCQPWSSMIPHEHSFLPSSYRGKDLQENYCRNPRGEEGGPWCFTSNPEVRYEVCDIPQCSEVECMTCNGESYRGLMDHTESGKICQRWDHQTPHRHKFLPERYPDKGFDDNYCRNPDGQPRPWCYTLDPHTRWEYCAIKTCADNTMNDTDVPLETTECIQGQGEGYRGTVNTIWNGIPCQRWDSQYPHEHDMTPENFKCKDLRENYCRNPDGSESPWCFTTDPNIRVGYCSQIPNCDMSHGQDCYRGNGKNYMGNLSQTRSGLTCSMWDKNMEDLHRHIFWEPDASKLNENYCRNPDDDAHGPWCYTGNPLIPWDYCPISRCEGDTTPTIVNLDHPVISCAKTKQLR
Sequence (P14210 495-728, chain 2 of 2): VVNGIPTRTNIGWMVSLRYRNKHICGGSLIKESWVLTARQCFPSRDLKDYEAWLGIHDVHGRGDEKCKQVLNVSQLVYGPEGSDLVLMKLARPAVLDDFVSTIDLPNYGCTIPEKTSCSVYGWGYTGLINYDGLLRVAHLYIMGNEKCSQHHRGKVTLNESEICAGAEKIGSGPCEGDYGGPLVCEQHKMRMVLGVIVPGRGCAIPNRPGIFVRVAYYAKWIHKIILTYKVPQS
Test: filter; HBSMC, 37C
Conditions: tags: R&D Systems
METRIC: Kd
Respond with the figure and its unit, in that order.

Here is how some binders turned out for Kd.
In [3]: df
Out[3]:
                                     binder    result
0  8-112 (ssRNA, 2'-F pyrimidines) RNA: GGGAGGACGAUGCGGUCCCGAAUUUAAGUGCGUUUCCUCCGCGUCCAGACGACUCGCCCGA   0.13 nM
1  10-8 (ssRNA, 2'-F pyrimidines) RNA: GGGAGAUAAGAAUAAACGCUCAAUUGACAAGGUACCUGUUGCCUGGCGUUUCUUUCGACAGGAGGCUCACAACAGGC   0.92 nM
2  11-76 (ssRNA, 2'-F pyrimidines) RNA: GGGAGGACGAUGCGGUCAGCGGCGCGAGCCUGUUUAUGUCUGCUGCAGACGACUCGCCCGA  0.076 nM
3  10-58 (ssRNA, 2'-F pyrimidines) RNA: GGGAGAUAAGAAUAAACGCUCAAGGGGAGGCCCUUCAGCCGUCUCCUUGACCCUUCGACAGGAGGCUCACAACAGGC   0.44 nM
4  11-9 (ssRNA, 2'-F pyrimidines) RNA: GGGAGGACGAUGCGGCGUGAGCCUGUUUAUGACCUCGUCCAUGGCCAGACGACUCGCCCGA  0.074 nM

Next binder, please.
Task item: Tell me the measured Kd of 11-103 (ssRNA, 2'-F pyrimidines) RNA: GGGAGGACGAUGCGGUGAUUACCUAUUAUGUCUCGCCCUCUCCAGACGACUCGCCCGA , please.
Reply: 0.2 nM

Data origin, for the record: patent US6344321
